Assay: yeast display, Sf9 membrane polyspecificity reagent, FACS + sequencing; frameworks hold sequencing errors
experimental-readout: polyreactivity (PSR sort gate)

>  <sequence-text>
QVQLVESGGGLVQAGGSLRLSCAASGRTFYRNAMGWYRQAPGKERELVASIRRNGGSTYYADSVKGRFTISRDNAKNTVYLQMNSLKPEDTAVYYCAAKFYWRGQSFRSGNFYWGQGTQVTVSS

>  <observed-result>
high polyreactivity

$$$$
>  <sequence-text>
QVQLVESGGGLVQAGGSLRLSCAASGLTFSSYAMGWYRQAPGKERELVAVISRTGGSTYYADSVKGRFTISRDNAKNTVYLQMNSLKPEDTAVYYCAARSYNGWRYDSWGQGTQVTVSS

>  <observed-result>
high polyreactivity

$$$$
>  <sequence-text>
QVQLVESGGGLVQAGGSLRLSCAASGGTFYTYAMGWYRQAPGKERELVAAISRSGGRTYYADSVKGRFTISRDNAKNTVYLQMNSLKPEDTAVYYCAAVRIARAVQDYDYWGQGTQVTVSS

>  <observed-result>
high polyreactivity

$$$$
